# target: D(1A) dopamine receptor (Mus musculus)
# Sequence (Q61616 whole entry): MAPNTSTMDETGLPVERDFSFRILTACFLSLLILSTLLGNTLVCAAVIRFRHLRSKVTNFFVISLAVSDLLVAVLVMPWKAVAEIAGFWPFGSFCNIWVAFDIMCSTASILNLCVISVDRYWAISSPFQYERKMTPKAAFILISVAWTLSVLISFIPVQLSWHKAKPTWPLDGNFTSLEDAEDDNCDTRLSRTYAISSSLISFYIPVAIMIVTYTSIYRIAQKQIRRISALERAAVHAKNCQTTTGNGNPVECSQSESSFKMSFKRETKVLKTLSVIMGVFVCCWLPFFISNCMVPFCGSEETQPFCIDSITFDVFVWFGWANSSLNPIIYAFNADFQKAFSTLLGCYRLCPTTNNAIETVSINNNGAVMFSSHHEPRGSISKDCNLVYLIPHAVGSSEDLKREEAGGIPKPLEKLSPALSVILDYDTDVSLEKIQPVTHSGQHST
propertyMeasured: Ki (µM)
Output spec: scalar in µM, unitless text.

The following molecules have reported results that may help.
{"molecule": "O=C(O)c1ccccc1C(=O)Nc1cccc2ccccc12 [NPA,(+)]", "target": "D(1A) dopamine receptor (Mus musculus)", "propertyMeasured": "Ki", "result": 0.48}
{"molecule": "OCCN1CCN(CCCN2c3ccccc3Sc3ccc(C(F)(F)F)cc32)CC1", "target": "D(1A) dopamine receptor (Mus musculus)", "propertyMeasured": "Ki", "result": 0.0045}

So, CN1CCN(C2=Nc3ccccc3Oc3ccc(Cl)cc32)CC1 ? Its Ki was 0.016
